Provide the recorded Ki for the entries that follow.
# system: Muscarinic acetylcholine receptor M1 (Homo sapiens, UniProt P11229)
# Sequence (P11229 whole entry): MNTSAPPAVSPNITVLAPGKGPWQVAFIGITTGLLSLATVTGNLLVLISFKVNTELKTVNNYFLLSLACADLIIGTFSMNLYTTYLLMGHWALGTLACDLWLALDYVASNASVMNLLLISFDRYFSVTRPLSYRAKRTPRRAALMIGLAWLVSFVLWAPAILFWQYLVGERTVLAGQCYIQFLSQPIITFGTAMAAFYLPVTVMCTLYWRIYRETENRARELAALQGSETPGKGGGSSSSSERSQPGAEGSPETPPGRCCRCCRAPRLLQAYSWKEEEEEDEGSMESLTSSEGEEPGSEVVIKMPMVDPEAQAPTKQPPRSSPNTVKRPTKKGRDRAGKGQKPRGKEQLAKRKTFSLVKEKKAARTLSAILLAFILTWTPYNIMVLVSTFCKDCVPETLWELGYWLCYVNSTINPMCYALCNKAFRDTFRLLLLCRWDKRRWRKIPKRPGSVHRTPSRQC
Give the value, in units of µM, as a plain number.

Quick note, Ki for c1cnc(O[C@@H]2CN3CCC2C3)cn1 (stereo in doubt; 1) landed at 5.6

Quick note, Ki for CCCCCCSc1nccnc1O[C@@H]1CN2CCC1C2 (stereo not given in full) landed at 0.075

Quick note, Ki for CCCCCCSc1nccnc1O[C@H]1CN2CCC1C2.Cl (stereo not given in full) landed at 0.002

Quick note, Ki for CNC(=O)O[C@@H]1CN2CCC1C2 (stereo not given in full) landed at 26

Quick note, Ki for CCCCCCOc1nccnc1O[C@H]1CN2CCC1C2 (stereo not given in full) landed at 0.69

Quick note, Ki for CCCCCCOc1nccnc1O[C@@H]1CN2CCC1C2 (stereo in doubt; 6) landed at 0.014

Quick note, Ki for c1cnc(O[C@@H]2CN3CCC2C3)cn1 (stereo in doubt; 2) landed at 2.5

Quick note, Ki for CCCCCCOc1nccnc1O[C@@H]1CN2CCC1C2 (stereo in doubt; 12) landed at 0.465

Quick note, Ki for CCCCCCSc1nccnc1OC1CN2CCC1C2 (stereo in doubt; 4) landed at 0.007

Quick note, Ki for CCCCCCSc1nccnc1O[C@H]1CN2CCC1C2 (stereo not given in full) landed at 0.124

---

# system: Muscarinic acetylcholine receptor M3 (Homo sapiens, UniProt P20309)
# Sequence (P20309 whole entry): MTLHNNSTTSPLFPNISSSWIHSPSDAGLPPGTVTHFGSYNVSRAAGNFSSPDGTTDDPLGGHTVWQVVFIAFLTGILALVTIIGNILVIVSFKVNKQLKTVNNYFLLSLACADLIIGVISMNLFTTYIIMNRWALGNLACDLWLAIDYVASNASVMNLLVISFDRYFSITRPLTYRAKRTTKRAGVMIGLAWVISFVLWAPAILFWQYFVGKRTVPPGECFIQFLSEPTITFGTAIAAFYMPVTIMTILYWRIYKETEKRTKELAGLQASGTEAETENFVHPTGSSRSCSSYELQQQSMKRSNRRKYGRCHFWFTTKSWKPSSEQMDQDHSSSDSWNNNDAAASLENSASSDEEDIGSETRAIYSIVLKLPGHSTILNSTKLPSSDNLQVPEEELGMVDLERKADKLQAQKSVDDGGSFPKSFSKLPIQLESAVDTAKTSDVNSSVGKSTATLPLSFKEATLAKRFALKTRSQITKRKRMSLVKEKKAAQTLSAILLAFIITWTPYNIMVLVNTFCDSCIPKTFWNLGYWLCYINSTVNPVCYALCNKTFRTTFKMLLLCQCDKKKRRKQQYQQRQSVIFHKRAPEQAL
# test protocol: In vitro functional agonism against M3 muscarinic receptor (PI)
measured attribute: pEC50
Hey, just a heads up that pEC50 is the negative log base 10 of the concentration in molar.

Quick note, pEC50 for CCCCCCSc1nccnc1O[C@H]1CN2CCC1C2.Cl (stereo partly specified) landed at 8.43

---

# system: UniProt P11229
# test protocol: In vitro functional agonism against M1 muscarinic receptor (PI)
measured attribute: EC50 (nM)
Give the value, in units of nM, as a plain number.

Quick note, EC50 for CCCCCCSc1nccnc1O[C@H]1CN2CCC1C2.Cl (stereo partly specified) landed at 1.1

---

# system: Muscarinic acetylcholine receptor M3 (Homo sapiens, UniProt P20309)
measured attribute: Ki

Quick note, Ki for CCCCCCSc1nccnc1O[C@H]1CN2CCC1C2.Cl (stereo partly specified) landed at 5.9 nM

---

# system: Muscarinic acetylcholine receptor M2 (Homo sapiens)
# Sequence (P08172 whole entry): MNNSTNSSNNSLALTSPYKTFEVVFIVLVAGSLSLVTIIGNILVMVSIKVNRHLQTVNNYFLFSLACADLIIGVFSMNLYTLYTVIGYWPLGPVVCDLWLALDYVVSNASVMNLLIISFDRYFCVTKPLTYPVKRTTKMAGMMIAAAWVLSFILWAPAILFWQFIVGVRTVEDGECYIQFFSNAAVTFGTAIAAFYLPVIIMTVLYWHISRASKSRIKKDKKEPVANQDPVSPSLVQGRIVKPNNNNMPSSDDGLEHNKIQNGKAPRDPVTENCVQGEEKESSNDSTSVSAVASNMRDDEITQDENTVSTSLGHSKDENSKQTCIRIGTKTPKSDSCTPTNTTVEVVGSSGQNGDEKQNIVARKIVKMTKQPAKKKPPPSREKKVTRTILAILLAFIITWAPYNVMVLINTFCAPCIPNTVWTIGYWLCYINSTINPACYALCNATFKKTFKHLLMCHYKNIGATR
Provide the recorded Ki for the entries that follow.
Give the value, in units of nM, as a plain number.

Quick note, Ki for c1cnc(O[C@@H]2CN3CCC2C3)cn1 (stereo in doubt; 1) landed at 40

Quick note, Ki for CCCCCCSc1nccnc1O[C@H]1CN2CCC1C2.Cl (stereo partly drawn) landed at 3.4

Quick note, Ki for CCCCCCOc1nccnc1OC1CN2CCC1C2 (stereo not drawn) landed at 20

---

# system: Muscarinic acetylcholine receptor M1 (Homo sapiens) (UniProt P11229)
# test protocol: Efficacy expressed as PI (percentage of carbachol) against human M1 receptor expressed in CHO cells
# Type: functional, cell-based
// NB: equality with 80% counts as Not fulfilled; only PI strictly below is Fulfilled

Task: Determine whether this molecule shows PI lower than 80% (ties excluded): CCCCCCOc1nccnc1SC1CN2CCC1C2 (stereo not drawn)
Result: Fulfilled

Task: Determine whether this molecule shows PI lower than 80% (ties excluded): CCCCCCSc1nccnc1OC1CN2CCC1C2 (stereo in doubt; 4)
Result: Not fulfilled

Task: Determine whether this molecule shows PI lower than 80% (ties excluded): CCCCCCSc1nccnc1O[C@@H]1CN2CCC1C2 (stereo partly drawn)
Result: Not fulfilled

Task: Determine whether this molecule shows PI lower than 80% (ties excluded): CCCCCCSc1cncc(OC2CN3CCC2C3)n1 (stereo not drawn)
Result: Fulfilled

Task: Determine whether this molecule shows PI lower than 80% (ties excluded): CNC(=O)O[C@@H]1CN2CCC1C2 (stereo partly drawn)
Result: Not fulfilled

Task: Determine whether this molecule shows PI lower than 80% (ties excluded): CCCCCCOc1nccnc1O[C@@H]1CN2CCC1C2 (stereo in doubt; 12)
Result: Fulfilled

Task: Determine whether this molecule shows PI lower than 80% (ties excluded): CCCCCCSc1nccnc1OC1CN2CCC1C2 (stereo in doubt; 8)
Result: Not fulfilled

Task: Determine whether this molecule shows PI lower than 80% (ties excluded): CCCCCCOc1nccnc1OC1CN2CCC1C2 (stereo not drawn)
Result: Not fulfilled

Task: Determine whether this molecule shows PI lower than 80% (ties excluded): c1cnc(O[C@@H]2CN3CCC2C3)cn1 (stereo in doubt; 1)
Result: Not fulfilled

Task: Determine whether this molecule shows PI lower than 80% (ties excluded): CCCCCCSc1nccnc1SC1CN2CCC1C2 (stereo not drawn)
Result: Fulfilled

Task: Determine whether this molecule shows PI lower than 80% (ties excluded): CCCCCCOc1nccnc1O[C@H]1CN2CCC1C2 (stereo partly drawn)
Result: Fulfilled

Task: Determine whether this molecule shows PI lower than 80% (ties excluded): c1cnc(O[C@@H]2CN3CCC2C3)cn1 (stereo in doubt; 2)
Result: Not fulfilled

---

# test protocol: Compound was evaluated in vivo for lethal dose in rats
# Type: ADME, organism-based
# measurement parameters: rat
measured attribute: LD50 (mg/kg)
Give the value, in units of mg/kg, as a plain number.

Quick note, LD50 for c1cnc(O[C@@H]2CN3CCC2C3)cn1 (stereo in doubt; 1) landed at 30
